measurement target: HLA-A*02:01
measurement notes: IEDB peptide-MHC binding, purified MHC/competitive/fluorescence; filed as Kd, often an IC50 or EC50 that approximates it; bounds were set here for any values at or beyond the usual limits of such assays
assay setup: source organism: Giardia lamblia ATCC 50803
recorded metric: Kd

## Input I am curious: what Kd value has been reported for RIYDPLWFQ ?
## Output ≥ 20 µM

* * *

measurement target: HLA-A*30:01
measurement notes: IEDB peptide-MHC binding, purified MHC/competitive/radioactivity; filed as Kd, often an IC50 or EC50 that approximates it; bounds were set here for any values at or beyond the usual limits of such assays
assay setup: source organism: Dengue virus 3 Singapore/8120/1995
recorded metric: pKd
Scale explanation: pKd corresponds to minus log10 of a concentration expressed in moles per litre.

## Input What value of measured pKd is listed for KALKINWYK ?
## Output 6.44
